Please use 1 (yes) whenever melting point is not below 200 °C, and 0 (no) whenever it is.

# compound, groupLabel
rows = [
    ("Cn1ccc(-c2ccc(NC(=O)c3cc4sc(N5CCOCC5)nc4s3)cc2)n1", "1 (yes)"),
    ("CN(C)C(=O)C1CCN(c2nc3sc(C(=O)n4nc(-c5ccc(N)cc5)cc4O)cc3s2)CC1", "1 (yes)"),
    ("COc1ccc(OC(=O)c2ccc(NC(=O)c3cc4sc(N5CCOCC5)nc4s3)cc2)cc1", "1 (yes)"),
    ("COc1ccc(NCc2cc3sc(N4CCCCC4)nc3s2)cc1", "0 (no)"),
    ("O=C(Nc1ccc(F)cc1)c1cc2nc(N3CCCCC3)sc2s1", "1 (yes)"),
    ("Cc1nc2cc(NC(=O)c3cc4sc(N5CCOC(C(=O)N(C)C)C5)nc4s3)ccc2o1 (centres unmarked)", "1 (yes)"),
    ("Cc1nnc(-c2ccc(NC(=O)c3cc4sc(N5CCOCC5)nc4s3)cc2Cl)o1", "1 (yes)"),
    ("O=C(Nc1cccc(Oc2ccccc2)c1)c1cc2sc(N3CCOCC3)nc2s1", "0 (no)"),
]

====

# compound, melting point (°C)
records = [
    ("CC(C)(C)OC(=O)Nc1cc2sc(N3CCCCC3)nc2s1", 157),
    ("Cn1cc(F)c(-c2ccc(NC(=O)c3cc4sc(N5CCOCC5)nc4s3)cc2)n1", 280.5),
    ("CCN(Cc1ccc(OC)cc1)c1nc2sc(C(=O)Nc3ccc(OC)cc3)cc2s1", 112),
    ("O=C(Nc1ccc(O)cc1)c1cc2nc(N3CCCCC3)sc2s1", 266),
    ("COc1ccc(C(=O)Nc2cc3sc(N4CCCCC4)nc3s2)cc1", 92),
    ("Cc1cnc(-c2ccc(NC(=O)c3cc4sc(N5CCOCC5)nc4s3)cc2)o1", 287.3),
    ("O=C(Nc1ccc(N2CCC(Cc3ccc(F)cc3)CC2)cc1)c1cc2sc(N3CCOCC3)nc2s1", 246),
    ("O=C(Nc1ccc(F)c(F)c1)c1cc2nc(N3CCCCC3)sc2s1", 246.3),
    ("COc1ccc(NC(=O)c2cc3scnc3s2)cc1", 212),
    ("Cc1nc2cc(CCNC(=O)c3cc4sc(N5CCOCC5)nc4s3)ccc2o1", 219.4),
    ("COc1ccc(CNC(=O)c2cc3sc(N4CCCCC4)nc3s2)cc1", 142),
    ("O=C(Nc1ccc(Cl)cc1)c1cc2sc(N3CCCCC3)nc2s1", 275.2),
    ("Cn1ncc2ccc(NC(=O)c3cc4sc(N5CCOCC5)nc4s3)cc21", 288),
    ("O=C(Nc1ccc(F)nc1)c1cc2sc(N3CCC(CO)CC3)nc2s1", 240.8),
    ("Cc1nc2cc(NC(=O)c3cn4nc(N5CCOCC5)sc4n3)ccc2o1", 311),
    ("COc1ccc(NC(=O)c2cc3sc(N4CC5CC4CN5)nc3s2)cc1 (stereo not drawn)", 161),
    ("Cc1nc2cc(NC(=O)C3CCc4nc(N5CCOCC5)sc4C3)ccc2o1 (stereo not drawn)", 239),
    ("COc1ccc(NC(=O)c2csc3nc(N4CCCCC4)sc23)cc1", 209.8),
    ("O=C(Nc1ccc(Oc2ccccc2)cc1)c1cc2sc(N3CCCCC3)nc2s1", 201),
    ("Cc1nc2cc(NC(=O)c3cc4sc(N5CCC(C(=O)NCc6ccccc6)CC5)nc4s3)ccc2o1", 264.9),
    ("COc1ccc(NC(=O)c2cc3sc(N4CCOCC4)nc3s2)cc1", 248.8),
    ("O=C(Nc1ccc(OC(F)(F)F)cc1)c1cc2sc(N3CCCCC3)nc2s1", 239),
    ("Cc1nc2cc(NC(=O)c3sc4nc(N5CCOCC5)sc4c3-c3ccccc3)ccc2o1", 285),
    ("COc1ccc(NC(=O)c2cc3sc(N4CCCC(N)C4)nc3s2)cc1 (stereo not drawn)", 232),
    ("CN(C)C(=O)C1CCN(c2nc3sc(C(=O)Nc4ccc5oc(-c6ccc(F)cc6)nc5c4)cc3s2)CC1", 323),
    ("Cc1nc2ccc(NC(=O)c3cc4nc(N5CCCCC5)sc4s3)cc2o1", 213),
    ("O=C(Nc1ccc(-n2ccnc2)cc1)c1cc2sc(N3CCOCC3)nc2s1", 266),
    ("O=C(Nc1ccc(-c2ccn(C3CCCCO3)n2)cc1)c1cc2sc(N3CCOCC3)nc2s1 (stereo not drawn)", 293),
    ("Cc1nc2ccc(NC(=O)c3cc4sc(N5CCOCC5)nc4s3)cc2o1.Cl", 272.2),
    ("Cc1nc2cc(NC(=O)c3cc4sc(N5CCOCC5)nc4s3)ccc2o1", 268.3),
    ("Cn1cnc2ccc(NC(=O)c3cc4sc(N5CCOCC5)nc4s3)cc21", 314),
    ("O=C(Nc1ccc(C(F)(F)F)cc1)c1cc2sc(N3CCOCC3)nc2s1", 259.3),
    ("COc1ccc(NC(=O)c2cc3sc(NCc4ccc(OC)nc4)nc3s2)cc1", 230.9),
    ("Cc1nc2cc(NC(=O)c3cc4sc(N5CCNCC5)nc4s3)ccc2o1", 235.3),
    ("O=C(Nc1ccc(C(F)(F)F)cc1)c1cc2nc(N3CCCCC3)sc2s1", 228.6),
    ("COc1ccc(NC(=O)c2cc3sc(N)nc3s2)cc1", 260),
]

Values from patent US11279714B2
